- System: SRC;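 note: KINOMEscan kinase panel screen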
- conditionDetails: concentration: 1 μM, replicates: in singlicate; n = 1
Catalogue of compounds with associated %Inh
Value expressed in %; do not type the unit.

Would you please look over these solved cases?
1) COc1cc(Nc2nccc(-c3c(-c4cccc(NC(=O)c5c(F)cccc5F)c4)nn4ccccc34)n2)cc(OC)c1OC    22
2) Fc1ccc(-c2ncn(C3CCNCC3)c2-c2ccnc(Oc3ccc(-c4ccccc4)cc3)n2)cc1    11
3) O=C(Nc1cccc(-c2nn3ncccc3c2-c2ccnc(Nc3ccccc3)n2)c1)c1c(F)cccc1F    62
4) COc1cc(Nc2nccc(N3CCC(NC(=O)Nc4cccc(C(C)=O)c4)C3)n2)cc(OC)c1OC (stereo not shown)    10
5) CCS(=O)(=O)c1ccc(OC)c(Nc2nccc(-c3c(-c4cccc(NC(=O)c5c(F)cccc5F)c4)nn4ncccc34)n2)c1    0

Ask: Respond only with %Inh recorded for Cc1ccc(F)c(C(=O)Nc2cccc(-c3nn4ccccc4c3-c3ccnc(Nc4cccc(F)c4)n3)c2)c1F
Reply: 25

Ask: Look up and report measured %Inh for this entry: Cl.c1ccc(-c2ccc3c(Nc4ccc5[nH]ccc5c4)ccnc3c2)nc1
Reply: 60

Data provenance: paper PMC5540273
